Test: Selectivity index, ratio of compound concentration for cell killing activity in human 184B5 cells to compound concentration for cell killing activity in human SK-BR-3 cells
Type: toxicity, cell-based
Conditions: 184B5 cells versus SK-BR-3 cells, read-out: Selectivity Index
Endpoint Label: selectivity ratio

Give recorded selectivity ratio. COc1ccc2nc3cc(Cl)ccc3c(NCCCN3C(=O)CCSC3c3cccs3)c2c1 (stereo unspecified)
3 to 6

====

Assay: Selectivity index, ratio of compound concentration for cell killing activity in human MCF10A cells to compound concentration for cell killing activity in human SK-BR-3 cells
Type: toxicity, cell-based
Details: MCF10A cells versus SK-BR-3 cells, read-out: Selectivity Index
Endpoint Label: selectivity ratio

Dear colleague, please send me the reported selectivity ratio for COc1ccc2nc3cc(Cl)ccc3c(NCCCN3C(=O)CCSC3c3cccs3)c2c1 (stereo unspecified) when you can.
3 to 6
